Biological target: T1, IL-1β (UniProt P01584 117-269)
T1 construct: Antigen immobilised on the Biacore chip
Test: Biacore, periplasmic extract
outcomeMeasure: fold difference in affinity vs original (fold)
Dear colleague, please return just the value in fold, with no unit written.

XPA23 light chain N30R (Fab, V domains shown) VH: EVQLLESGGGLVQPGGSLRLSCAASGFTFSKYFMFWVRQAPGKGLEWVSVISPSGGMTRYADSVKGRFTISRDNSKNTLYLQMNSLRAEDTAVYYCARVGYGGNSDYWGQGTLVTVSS VL: DIQMTQSPSSVSASVGDRLTIICRASQDIRRWLAWYQQTPGNAPKLLIHSATSLQSGVPSRFSGSGSGTDFTLTINSLQPEDFATYYCQQADSFPLTFGGGTKVEIK | 0.74
XPA23 light chain S93Q (Fab, V domains shown) VH: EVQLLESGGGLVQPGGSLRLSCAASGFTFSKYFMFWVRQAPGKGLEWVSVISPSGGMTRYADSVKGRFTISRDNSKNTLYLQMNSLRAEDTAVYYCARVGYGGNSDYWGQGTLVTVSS VL: DIQMTQSPSSVSASVGDRLTIICRASQDINRWLAWYQQTPGNAPKLLIHSATSLQSGVPSRFSGSGSGTDFTLTINSLQPEDFATYYCQQADQFPLTFGGGTKVEIK | 1.54
XPA23 light chain S53Q (Fab, V domains shown) VH: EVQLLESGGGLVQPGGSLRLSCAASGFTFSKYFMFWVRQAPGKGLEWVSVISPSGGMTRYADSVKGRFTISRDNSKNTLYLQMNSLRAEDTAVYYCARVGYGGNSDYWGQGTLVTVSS VL: DIQMTQSPSSVSASVGDRLTIICRASQDINRWLAWYQQTPGNAPKLLIHSATQLQSGVPSRFSGSGSGTDFTLTINSLQPEDFATYYCQQADSFPLTFGGGTKVEIK | 1.09

Consider the record given below.
Exercise: Quick check: fold difference in affinity vs original of XPA23 light chain L96S (Fab, V domains shown) VH: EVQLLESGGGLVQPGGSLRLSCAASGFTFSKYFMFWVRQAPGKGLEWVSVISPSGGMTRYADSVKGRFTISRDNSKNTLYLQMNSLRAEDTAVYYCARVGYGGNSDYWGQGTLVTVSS VL: DIQMTQSPSSVSASVGDRLTIICRASQDINRWLAWYQQTPGNAPKLLIHSATSLQSGVPSRFSGSGSGTDFTLTINSLQPEDFATYYCQQADSFPSTFGGGTKVEIK ?
Key: 0.23
